The measurements presented in this section are drawn from the supplement of paper PMC11246515.

method_description: total protein half-life in vivo (active degradation + dilution); higher = more stable protein
condition_notes: E. coli NCM3722 delta-hslV; growth: N-lim chemostat; doubling time 6 h

| seq | total protein half-life in vivo / h |
| --- | --- |
| MTVTRPRAERGAFPPGTEHYGRSLLGAPLIWFPAPAASRESGLILAGTHGDENSSVVTLSCALRTLTPSLRRHHVVLCVNPDGCQLGLRANANGVDLNRNFPAANWKEGETVYRWNSAAEERDVVLLTGDKPGSEPETQALCQLIHRIQPAWVVSFHDPLACIEDPRHSELGEWLAQAFELPLVTSVGYETPGSFGSWCADLNLHCITAEFPPISSDEASEKYLFAMANLLRWHPKDAIRPS [P0ACV6] | 3.78 |
| MAHIVTLNTPSREDWLTQLADVVTDPDELLRLLNIDAEEKLLAGRSAKKLFALRVPRSFIDRMEKGNPDDPLLRQVLTSQDEFVIAPGFSTDPLEEQHSVVPGLLHKYHNRALLLVKGGCAVNCRYCFRRHFPYAENQGNKRNWQTALEYVAAHPELDEMIFSGGDPLMAKDHELDWLLTQLEAIPHIKRLRIHSRLPIVIPARITEALVECFARSTLQILLVNHINHANEVDETFRQAMAKLRRVGVTLLNQSVLLRDVNDNAQTLANLSNALFDAGVMPYYLHVLDKVQGAAHFMVSDDEARQIMRELLTLVSGYLVPKLAREIGGEPSKTPLDLQLRQQ | 1.02 |
| MARINRISITLCALLFTTLPLTPMAHASKQARESSATTHITKKADKKKSTATTKKTQKTAKKAASKSTTKSKTASSVKKSSITASKNAKTRSKHAVNKTASASFTEKCTKRKGYKSHCVKVKNAASGTLADAHKAKVQKATKVAMNKLMQQIGKPYRWGGSSPRTGFDCSGLVYYAYKDLVKIRIPRTANEMYHLRDAAPIERSELKNGDLVFFRTQGRGTADHVGVYVGNGKFIQSPRTGQEIQITSLSEDYWQRHYVGARRVMTPKTLR | 3.67 |
